test-summary: Log D by shake flask method (octanol / PBS pH 7.4, HPLC)
Type: physicochemical
experimental-parameters: octanol / PBS pH 7.4, shake flask; read-out: logD
Entries annotated with measured logD

Study these solved cases before continuing.
compound	logD
CCNC(=O)C(=O)CC[C@H](NC(=O)c1csc2nc(C)cn12)C(=O)Nc1cccn(CC(=O)NC2C3CC4CC(C3)CC2C4)c1=O (some centres unmarked) [Compound I-96]	3 to 5
CCNC(=O)C(=O)CC[C@H](NC(=O)c1cc(Br)cs1)C(=O)Nc1cccn(CC(=O)NC2C3CC4CC(C3)CC2C4)c1=O (some centres unmarked) [Compound I-51]	3 to 5
CCNC(=O)C(=O)CC[C@H](NC(=O)c1cccnc1)C(=O)Nc1cccn(CC(=O)NCCc2ccccc2)c1=O [Ref. 4, reference compound]	< 1
CCNC(=O)C(=O)CC[C@H](NC(=O)c1coc(S(N)(=O)=O)c1)C(=O)Nc1cccn(CC(=O)NC2C3CC4CC2CC(NC(C)=O)(C4)C3)c1=O (some centres unmarked) [Compound I-112]	< 1
CCNC(=O)C(=O)CC[C@H](NC(=O)c1cncn1C)C(=O)Nc1cccn(CC(=O)NC23CC4CC(CC(Br)(C4)C2)C3)c1=O [Compound I-10]	< 1
CCNC(=O)C(=O)CC[C@H](NC(=O)c1oc(Br)cc1C)C(=O)Nc1cccn(CC(=O)NC2C3CC4CC(C3)CC2C4)c1=O (some centres unmarked) [Compound I-45]	3 to 5

Input: Provide measured logD value, entry: CCNC(=O)C(=O)CC[C@H](NC(=O)c1cc2c(F)c(F)ccc2[nH]1)C(=O)Nc1cccn(CC(=O)NC2C3CC4CC(C3)CC2C4)c1=O (some centres unmarked) [Compound I-36]
Output: 3 to 5

Input: Provide measured logD value, entry: CCNC(=O)C(=O)CC[C@H](NC(=O)c1ccc2occc2c1)C(=O)Nc1cccn(CC(=O)NC2C3CC4CC2CC(NC(C)=O)(C4)C3)c1=O (some centres unmarked) [Compound I-113]
Output: < 1

Input: Provide measured logD value, entry: CCNC(=O)C(=O)CC[C@H](NC(=O)c1nc(Br)cs1)C(=O)Nc1cccn(CC(=O)NC2C3CC4CC(C3)CC2C4)c1=O (some centres unmarked) [Compound I-50]
Output: 3 to 5

Input: Provide measured logD value, entry: CCNC(=O)C(=O)CC[C@H](NC(=O)c1cnnn1C)C(=O)Nc1cccn(CC(=O)NC2C3CC4CC(C3)CC2C4)c1=O (some centres unmarked) [Compound I-56]
Output: < 1

Input: Provide measured logD value, entry: CCNC(=O)C(=O)CC[C@H](NC(=O)c1nc(Cl)sc1Cl)C(=O)Nc1cccn(CC(=O)NC2C3CC4CC(C3)CC2C4)c1=O (some centres unmarked) [Compound I-48]
Output: 1 to 3

====

system-tested: recombinant human transglutaminase 2 (Homo sapiens)
test-summary: Transglutaminase assay: incorporation of dansylcadaverine into dimethylcasein (DCC-assay)
Type: biochemical
experimental-parameters: recombinant human TG2 10 nM, dansylcadaverine/dimethylcasein; read-out: IC50 TG2
Entries annotated with measured IC50

Input: Provide measured IC50 value, entry: CCNC(=O)C(=O)CC[C@H](NC(=O)c1nonc1N)C(=O)Nc1cccn(CC(=O)NC23CC(C2)C3)c1=O [Compound I-108]
Output: 600 to 3500 nM

Input: Provide measured IC50 value, entry: CCNC(=O)C(=O)CC[C@H](NC(=O)c1c(C)ncn1C)C(=O)Nc1cccn(CC(=O)NC23CC4CC(C)(CC(C)(C4)C2)C3)c1=O [Compound I-21]
Output: 600 to 3500 nM

Input: Provide measured IC50 value, entry: CCNC(=O)C(=O)CC[C@H](NC(=O)c1oc2ccccc2c1C)C(=O)Nc1cccn(CC(=O)NC23CC(C2)C3)c1=O [Compound I-88]
Output: < 150 nM

Input: Provide measured IC50 value, entry: CCNC(=O)C(=O)CC[C@H](NC(=O)c1ccncc1)C(=O)Nc1cccn(CC(=O)NC23CCC(CC2)C3)c1=O [Compound I-71]
Output: 150 to 600 nM

Input: Provide measured IC50 value, entry: CCNC(=O)C(=O)CC[C@H](NC(=O)c1c[nH]cc1C(C)(C)C)C(=O)Nc1cccn(CCC23CC4CC(CC(C4)C2)C3)c1=O [Compound I-85]
Output: 600 to 3500 nM

Input: Provide measured IC50 value, entry: CCNC(=O)C(=O)CC[C@H](NC(=O)c1nn[nH]n1)C(=O)Nc1cccn(CC(=O)NC2C3CC4CC(C3)CC2C4)c1=O (stereo partly drawn) [Compound I-57]
Output: 600 to 3500 nM

====

system-tested: recombinant human transglutaminase 2 (Homo sapiens, UniProt P21980)
Sequence (P21980 1-687): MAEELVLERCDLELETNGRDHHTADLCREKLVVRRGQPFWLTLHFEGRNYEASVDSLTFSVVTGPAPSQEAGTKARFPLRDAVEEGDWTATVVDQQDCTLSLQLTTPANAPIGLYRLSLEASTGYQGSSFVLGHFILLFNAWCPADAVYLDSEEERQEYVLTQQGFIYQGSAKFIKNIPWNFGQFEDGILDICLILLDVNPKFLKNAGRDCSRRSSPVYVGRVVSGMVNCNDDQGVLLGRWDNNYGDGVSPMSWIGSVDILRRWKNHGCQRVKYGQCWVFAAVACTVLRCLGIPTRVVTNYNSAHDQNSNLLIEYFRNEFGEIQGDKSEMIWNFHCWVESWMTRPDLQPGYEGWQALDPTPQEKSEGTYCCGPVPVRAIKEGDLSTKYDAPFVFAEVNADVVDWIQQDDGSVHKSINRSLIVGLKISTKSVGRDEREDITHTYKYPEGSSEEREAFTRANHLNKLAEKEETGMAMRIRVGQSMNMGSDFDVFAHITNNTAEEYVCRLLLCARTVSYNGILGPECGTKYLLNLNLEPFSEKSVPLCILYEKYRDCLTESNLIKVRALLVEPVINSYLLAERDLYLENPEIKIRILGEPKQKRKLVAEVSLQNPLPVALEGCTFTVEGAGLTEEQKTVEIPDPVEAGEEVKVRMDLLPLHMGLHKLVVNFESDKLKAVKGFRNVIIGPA
test-summary: Transglutaminase assay: incorporation of dansylcadaverine into dimethylcasein (DCC-assay)
Format: biochemical
experimental-parameters: recombinant human TG2 10 nM, dansylcadaverine/dimethylcasein; read-out: IC50 TG2
pIC50: −log10 of the molar value.
Entries annotated with measured pIC50

molecule	pIC50
CCNC(=O)C(=O)CC[C@H](NC(=O)c1sc(-c2ccccc2)nc1C)C(=O)Nc1cccn(CC(=O)NC2C3CC4CC(C3)CC2C4)c1=O (stereo partly drawn)	6.22 to 6.82
CCNC(=O)C(=O)CC[C@H](NC(=O)c1c(C)ncn1C)C(=O)Nc1cccn(CC(=O)NC23CC4CC(CC(CC)(C4)C2)C3)c1=O	5.46 to 6.22
CCNC(=O)C(=O)CC[C@H](NC(=O)c1coc(C(C)=O)n1)C(=O)Nc1cccn(CC(=O)NC23CC(C2)C3)c1=O	> 6.82
CCNC(=O)C(=O)CC[C@H](NC(=O)c1snnc1C1CC1)C(=O)Nc1cccn(CC23CC4CC(CC(O)(C4)C2)C3)c1=O	6.22 to 6.82
CCNC(=O)C(=O)CC[C@H](NC(=O)[C@@H]1CN2CCN1CC2)C(=O)Nc1cccn(CC(=O)NC2C3CC4CC(C3)CC2C4)c1=O (stereo partly drawn)	5.46 to 6.22

Shifting focus to the molecule that follows.
Input: Given CCNC(=O)C(=O)CC[C@H](NC(=O)c1cc(C)oc1C)C(=O)Nc1cccn(CC(=O)NC2C3CC4CC(C3)CC2C4)c1=O (stereo partly drawn) , report its pIC50 on recombinant human transglutaminase 2 (Homo sapiens, UniProt P21980).
Output: > 6.82

====

test-summary: Caco-2 permeability assay (CacoReady kit)
Type: in vitro ADME
experimental-parameters: human
measured-property: Papp

molecule	Papp
CCNC(=O)C(=O)CC[C@H](NC(=O)c1ccnnc1)C(=O)Nc1cccn(CC(=O)NC2C3CCC2CC3)c1=O (stereo partly drawn)	< 1 ×10⁻⁶ cm/s
CCNC(=O)C(=O)CC[C@H](NC(=O)c1oc2ccccc2c1C)C(=O)Nc1cccn(CC(=O)N[C@@H]2C[C@H]3CC[C@@H]2C3)c1=O	1 to 10 ×10⁻⁶ cm/s
CCNC(=O)C(=O)CC[C@H](NC(=O)c1cc2ccccc2n1CC)C(=O)Nc1cccn(CC(=O)NC23CC(C2)C3)c1=O	1 to 10 ×10⁻⁶ cm/s
CCNC(=O)C(=O)CC[C@H](NC(=O)c1cn(C2CCCC2)cn1)C(=O)Nc1cccn(CC(=O)NC23CC4CC(CC(CC)(C4)C2)C3)c1=O	< 1 ×10⁻⁶ cm/s
CCNC(=O)C(=O)CC[C@H](NC(=O)c1cnccn1)C(=O)Nc1cccn(CC(=O)NC2C3CC4CC2CC(O)(C4)C3)c1=O (stereo partly drawn)	< 1 ×10⁻⁶ cm/s

Input: Provide measured Papp value, entry: `CCNC(=O)C(=O)CC[C@H](NC(=O)c1snnc1C1CC1)C(=O)Nc1cccn(CC23CC4CC(CC(O)(C4)C2)C3)c1=O`
Output: < 1 ×10⁻⁶ cm/s

Input: Provide measured Papp value, entry: `CCNC(=O)C(=O)CC[C@H](NC(=O)c1cnc2ccc(OC(F)(F)F)cc2c1O)C(=O)Nc1cccn(CC(=O)N[C@@H]2C[C@@H]3CC[C@H]2C3)c1=O`
Output: < 1 ×10⁻⁶ cm/s

Input: Provide measured Papp value, entry: CCNC(=O)C(=O)CC[C@H](NC(=O)c1nc(Cl)sc1Cl)C(=O)Nc1cccn(CC(=O)NC2C3CC4CC(C3)CC2C4)c1=O (stereo partly drawn)
Output: 1 to 10 ×10⁻⁶ cm/s

Input: Provide measured Papp value, entry: CCNC(=O)C(=O)CC[C@H](NC(=O)c1cc2ccccc2o1)C(=O)Nc1cccn(CC(=O)NC2C3CC4CC(C3)CC2C4)c1=O (stereo partly drawn)
Output: 1 to 10 ×10⁻⁶ cm/s

Input: Provide measured Papp value, entry: `CCNC(=O)C(=O)CC[C@H](NC(=O)c1csnn1)C(=O)Nc1cccn(CC(=O)NC23CC(C2)C3)c1=O`
Output: < 1 ×10⁻⁶ cm/s

Input: Provide measured Papp value, entry: CCC(CC)CNC(=O)Cn1cccc(NC(=O)[C@H](CC/C=C/C(=O)OC)NC(=O)c2cncn2C)c1=O [Ref. 2, reference compound]
Output: < 1 ×10⁻⁶ cm/s

Input: Provide measured Papp value, entry: CCNC(=O)C(=O)CC[C@H](NC(=O)c1ccc2c(c1)CC(=O)NC2)C(=O)Nc1cccn(CC(=O)NC2(C(=O)O)C3CC4CC2CC(C(F)(F)F)(C4)C3)c1=O (stereo partly drawn)
Output: < 1 ×10⁻⁶ cm/s
